Target: Neutrophil elastase (Homo sapiens)
Assay: Compound was tested for inhibition of human leukocyte Elastase at 51 uM concentration from human polymorphonuclear leukocytes
pKi: −log10 of the molar value.
parameter: pKi

Input: // query pKi value for entry Oc1sc(Nc2ccc(F)cc2)nc2c3ccccc3nc1-2
Output: ≤ 3.98

---

Biological target: Neutrophil elastase (Homo sapiens)
Assay: Compound was tested for inhibition of human leukocyte Elastase at 13 uM concentration from human polymorphonuclear leukocytes
pKi: −log10 of the molar value.
Please go through the items and note down their pKi.

Oc1sc(Nc2ccc(Br)cc2)nc2c3ccccc3nc1-2    ≤ 4.52

Input: // query pKi value for entry Oc1sc(Nc2cccc(C(F)(F)F)c2)nc2c3ccccc3nc1-2
Output: ≤ 4.52

---

Target: Neutrophil elastase (Homo sapiens, UniProt P08246)
Assay: Compound was tested for inhibition of human leukocyte Elastase at 15 uM concentration from human polymorphonuclear leukocytes
pKi: −log10 of the molar value.
parameter: pKi

Input: // query pKi value for entry O=[N+]([O-])c1ccc(Nc2nc3c4ccccc4nc-3c(O)s2)cc1
Output: ≤ 4.35

---

Target: Neutrophil elastase (Homo sapiens, UniProt P08246)
Experiment: Compound was tested for inhibition of human leukocyte Elastase at 64 uM concentration from human polymorphonuclear leukocytes
parameter: Ki (µM)
Numbers only, in µM.

Input: // query Ki value for entry Oc1sc(Nc2ccccc2)nc2c3ccccc3nc1-2
Output: 43

---

Target: Neutrophil elastase (Homo sapiens, UniProt P08246)
Sequence (P08246 whole entry): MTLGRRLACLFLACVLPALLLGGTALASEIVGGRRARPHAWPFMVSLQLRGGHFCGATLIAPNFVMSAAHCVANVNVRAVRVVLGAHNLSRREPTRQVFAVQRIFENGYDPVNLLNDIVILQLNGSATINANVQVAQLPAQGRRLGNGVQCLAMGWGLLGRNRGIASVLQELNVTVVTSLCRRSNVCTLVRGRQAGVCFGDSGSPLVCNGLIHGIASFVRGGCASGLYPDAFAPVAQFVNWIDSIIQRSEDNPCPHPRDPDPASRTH
Experiment: Compound was tested for inhibition of human leukocyte Elastase at 16 uM concentration from human polymorphonuclear leukocytes
parameter: Ki

Oc1sc(Nc2cccc(F)c2)nc2c3ccccc3nc1-2    ≥ 72 µM

Input: Write down the reported Ki of Cc1ccc(Nc2nc3c4ccccc4nc-3c(O)s2)cc1 , test system: Neutrophil elastase (Homo sapiens, UniProt P08246).
Output: ≥ 78 µM

---

Molecular target: Neutrophil elastase (Homo sapiens, UniProt P08246)
Experiment: Compound was tested for inhibition of human leukocyte Elastase at 23 uM concentration from human polymorphonuclear leukocytes
parameter: Ki (µM)
Numbers only, in µM.

Input: // query Ki value for entry Oc1sc(Nc2ccc(Cl)cc2)nc2c3ccccc3nc1-2
Output: 29

---

Target: Neutrophil elastase (Homo sapiens)
Assay: Compound was tested for inhibition of human leukocyte Elastase at 32 uM concentration from human polymorphonuclear leukocytes
pKi: −log10 of the molar value.
parameter: pKi

Input: // query pKi value for entry Oc1sc(Nc2ccccc2F)nc2c3ccccc3nc1-2
Output: ≤ 4.06
